Molecular target: Adenosine receptor A2a (Homo sapiens)
Experiment: Displacement of [3H]ZM241385 from human adenosine A2A receptor expressed in CHO cell membranes at 1 uM incubated for 60 mins by scintillation counting method
Measured quantity: inhibition (%)
Give just the number in %; leave the unit off.

Cc1nc2sc(Nc3ccc(Cl)cc3)nc2c(=O)[nH]1    18
Cc1nc2sc(-c3ccc(Cl)cc3)nc2c(=O)[nH]1    1
CCOc1nc(C)nc2sc(-c3ccc(C)cc3)nc12    1
Cc1nc2sc(-c3ccccc3)nc2c(=O)[nH]1    1
COc1ccc(-c2nc3c(=O)[nH]c(C)nc3s2)cc1    1
CCOc1nc(C)nc2sc(-c3ccc(Cl)cc3)nc12    9
Cc1nc2sc(-c3ccc(O)cc3)nc2c(=O)[nH]1    1
Cc1ccc(Nc2nc3c(=O)[nH]c(C)nc3s2)cc1    18
COc1cccc(-c2nc3c(=O)[nH]c(C)nc3s2)c1    12
Cc1nc2sc(-c3ccco3)nc2c(=O)[nH]1    1

Q) Item: Cc1nc2sc(-c3cccnc3)nc2c(=O)[nH]1 Test system: Adenosine receptor A2a (Homo sapiens) Read-out: inhibition Value: ?
A) 1

Q) Repeat with COc1cccc(Nc2nc3c(=O)[nH]c(C)nc3s2)c1
A) 1

Q) Repeat with Cc1nc2sc(-c3ccc(F)cc3)nc2c(=O)[nH]1
A) 15

Q) Repeat with Cc1nc2sc(-n3cccc3)nc2c(=O)[nH]1
A) 9

Q) Repeat with Cc1nc2sc(Cc3ccccc3)nc2c(=O)[nH]1
A) 1

Q) Repeat with Cc1nc2sc(Nc3ccccc3)nc2c(=O)[nH]1
A) 14

Q) Repeat with Cc1cccc(-c2nc3c(=O)[nH]c(C)nc3s2)c1
A) 31

Q) Repeat with Cc1nc2sc(-c3cccc(Cl)c3)nc2c(=O)[nH]1
A) 10

Q) Repeat with Cc1nc2sc(Nc3ccc(Cl)c(Cl)c3)nc2c(=O)[nH]1
A) 16

Q) Repeat with Cc1nc2sc(-c3ccc(C(=O)O)cc3)nc2c(=O)[nH]1
A) 1

Q) Repeat with Cc1ccc(-c2nc3c(=O)[nH]c(C)nc3s2)cc1
A) 2

###

Target: Adenosine receptor A3 (Homo sapiens, UniProt P0DMS8)
Sequence (P0DMS8 whole entry): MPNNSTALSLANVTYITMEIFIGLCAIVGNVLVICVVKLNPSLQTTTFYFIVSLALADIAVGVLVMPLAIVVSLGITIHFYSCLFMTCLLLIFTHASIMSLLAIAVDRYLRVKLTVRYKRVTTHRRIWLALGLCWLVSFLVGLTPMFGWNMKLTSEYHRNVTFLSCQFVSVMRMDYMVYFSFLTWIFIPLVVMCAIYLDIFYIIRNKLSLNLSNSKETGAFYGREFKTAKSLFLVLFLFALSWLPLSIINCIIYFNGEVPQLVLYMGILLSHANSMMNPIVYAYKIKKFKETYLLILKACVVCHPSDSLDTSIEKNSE
Test: Antagonist activity against human adenosine A3 receptor expressed in CHO cells assessed as blockade of Cl-IB-MECA-induced inhibition of forskolin-induced cAMP production by scintillation counting method
Measured quantity: IC50 (nM)
Give just the number in nM; leave the unit off.

Cc1nc2sc(-c3ccc(Cl)cc3)nc2c(=O)[nH]1    42

Shifting focus to the compound that follows.
Q) Item: Cc1nc2sc(-c3ccccc3)nc2c(=O)[nH]1 Test system: Adenosine receptor A3 (Homo sapiens, UniProt P0DMS8) Read-out: IC50 Value: ?
A) 221

###

Target: Adenosine receptor A1 (Homo sapiens)
Assay: Displacement of [3H]DPCPX from human adenosine A1 receptor expressed in CHO cell membranes at 1 uM incubated for 120 mins by scintillation counting method
Measured quantity: inhibition (%)
Give just the number in %; leave the unit off.

Cc1nc2sc(-c3ccc(Cl)cc3)nc2c(=O)[nH]1    1
Cc1nc2sc(-n3cccc3)nc2c(=O)[nH]1    1
CCOc1nc(C)nc2sc(-c3ccc(C)cc3)nc12    1
Cc1nc2sc(Nc3ccccc3)nc2c(=O)[nH]1    24
CCOc1nc(C)nc2sc(Nc3ccccc3)nc12    2
Cc1nc2sc(Nc3ccc(Cl)c(Cl)c3)nc2c(=O)[nH]1    30
Cc1nc2sc(-c3ccco3)nc2c(=O)[nH]1    37
Cc1nc2sc(-c3cccnc3)nc2c(=O)[nH]1    1
Cc1nc2sc(-c3cccs3)nc2c(=O)[nH]1    4
Cc1cccc(-c2nc3c(=O)[nH]c(C)nc3s2)c1    1

Shifting focus to the compound that follows.
Q) Item under review: Cc1nc2sc(-c3cccc(Cl)c3)nc2c(=O)[nH]1 . Reported inhibition?
A) 24
